# Read-out: Glutamate-cysteine ligase regulatory (GCLM), GCLM (gene 2730)
# protocol text: LTEA_HepaRG_GCLM: Life Technologies and Expression Analysis (LTEA) Assay for Glutamate-cysteine ligase regulatory (GCLM) using HepaRG (AID 2283500)
# setup conditions: mRNA level, 48 h; actives raise or lower the signal
# Description: LTEA_HepaRG is a cell based, multiplexed-readout assay that uses HepaRG, a human liver cell line, with measurements taken at 48 hours after chemical dosing on a 96-well plate.LTEA_HepaRG_GCLM is one of 102 assay component(s) measured in the LTEA HepaRG cell culture assay. It is a marker of Cell proliferation, survival, death.Data from the assay component LTEA_HepaRG_GCLM was analyzed into 1 endpoint. […]
Calls of active or inactive are those of the source. The calls were made as follows: active = hit-call score of the fitted dose curve at least 0.9, where 1 is the maximum; inactive = score below 0.9.
reported endpoint: AC50

| smiles record | result |
| --- | --- |
| O=CCCCC=O | 0.236 µM (active) |
| CCN(Cc1cccnc1)C(=O)c1cccc(Cl)c1[C@]1(C)C(=O)N(Cc2ccc(OC)cc2OC)c2ccc(Cl)cc21 | 20.1 µM (active) |
| O=C1c2ccccc2C(=O)N1CCc1noc(-c2ccc(CN3CCCCCC3)s2)n1 | inactive |
| Oc1ccccc1 | inactive |
| CN(C)c1ccc(C(=C2C=CC(=[N+](C)C)C=C2)c2ccc(N(C)C)cc2)cc1 | 95.3 µM (active) |
| c1ccc2n[nH]nc2c1 | inactive |

Origin of the recorded values: PubChem BioAssay (EPA / NIEHS)
